Field: Ragweed plant response rating. Provide a value for each of the compounds that follow.
test system: ragweed (common ragweed, Ambrosia elatior); test: Test A postemergence, visual injury rating 0-100; format: in vivo; conditions: 125 g ai/ha, 0 to 100 scale

Example compounds with recorded Ragweed plant response rating:
Lab note: ragweed (common ragweed, Ambrosia elatior) assay, enter Ragweed plant response rating for CC1=[N+]([O-])C(C(=O)Nc2cccc(F)c2F)C(c2cccc(C)c2C)C1 (racemic) here 20

Lab note: ragweed (common ragweed, Ambrosia elatior) assay, enter Ragweed plant response rating for CC1=[N+]([O-])C(C(=O)Nc2cccc(F)c2F)C(c2cc(C)ccc2C)C1 (racemic) here 30

Lab note: ragweed (common ragweed, Ambrosia elatior) assay, enter Ragweed plant response rating for CC1=[N+]([O-])C(C(=O)Nc2cccc(F)c2F)C(c2ccc(C(F)(F)F)cc2F)C1 (stereo not shown) here 30

Please turn your attention to the following entry.
Lab note: ragweed (common ragweed, Ambrosia elatior) assay, enter Ragweed plant response rating for CC1=[N+]([O-])C(C(=O)Nc2cccc(F)c2F)C(c2ccc(F)c(C(F)(F)F)c2)C1 (racemic) here 10

* * *

tested on: pigweed (Amaranthus retroflexus); experiment: Test A preemergence, visual injury rating 0-100; assay type: in vivo; conditions: 500 g ai/ha
Field: Pigweed plant response rating (0 to 100 scale). Provide a value for each of the compounds that follow.
Give bare numbers.

Input O=C(Nc1cccc(F)c1F)C1C(c2ccccc2)CC(C(F)(F)F)=[N+]1[O-] (racemic) , output reported Pigweed plant response rating (0 to 100 scale). 0

Input CC1=[N+]([O-])C(C(=O)Nc2cccc(F)c2F)C(c2cc(C)n(Cc3ccc(Cl)cc3)c(=O)c2)C1 (racemic) , output reported Pigweed plant response rating (0 to 100 scale). 0

Input CC1=[N+]([O-])C(C(=O)Nc2ccccc2S(C)(=O)=O)C(c2ccc(C(F)(F)F)cc2)C1 (racemic) , output reported Pigweed plant response rating (0 to 100 scale). 90

The following compounds each have a reported value; give each one's Pigweed plant response rating (0 to 100 scale).
1. CCC1=[N+]([O-])C(C(=O)Nc2cccc(F)c2F)C(c2ccc(C(F)(F)F)cc2)C1 (racemic)
2. COc1cccc(C2CC(C)=[N+]([O-])C2C(=O)Nc2cccc(F)c2F)n1 (racemic)
3. CC1=[N+]([O-])C(C(=O)Nc2cccc(F)c2F)C(c2cc(C(F)(F)F)ccc2C)C1 (centres unmarked)
4. COc1ccc(C2CC(C)=[N+]([O-])C2C(=O)Nc2cccc(F)c2F)cc1C(F)(F)F (racemic)
5. CC1=[N+]([O-])C(C(=O)Nc2cccc(F)c2F)C(c2cccc(Oc3ccc(F)cc3)c2)C1 (racemic)
6. CC1=[N+]([O-])C(C(=O)Nc2ccncc2C(F)(F)F)C(c2ccc(C(F)(F)F)cc2)C1 (racemic)
7. CC1=[N+]([O-])C(C(=O)Nc2cccc(F)c2F)C(c2ccc(C)c(Br)c2)C1 (racemic)
8. CC1=[N+]([O-])[C@H](C(=O)Nc2cccc(F)c2F)[C@@H](c2ccc(C(F)(F)F)c(F)c2)C1 (relative stereo)

60
0
70
60
0
60
40
90

The following compounds each have a reported value; give each one's Pigweed plant response rating (0 to 100 scale).
1. CC1=[N+]([O-])C(C(=O)Nc2cccc(F)c2F)C(c2cc(C)cc(F)c2)C1 (racemic)
2. CC1=[N+]([O-])C(C(=O)Nc2ccccc2C#N)C(c2ccc(C(F)(F)F)cc2)C1 (racemic)

70
80

Input CC1=[N+]([O-])C(C(=O)Nc2cccc(F)c2F)C(c2cccc3c2CCC3)C1 (racemic) , output reported Pigweed plant response rating (0 to 100 scale). 80
